Below: a set of entries, each annotated with reported inhibition.
TEST_SYSTEM: Dual specificity protein phosphatase 3 (Homo sapiens)
TEST_NAME: VHR1 phosphatase inhibitors, primary screen, biochemical, absorbance, uHTS (AID 1654)
COND: recombinant VHR phosphatase, pNPP absorbance, at 13.3 µM, active compounds read high
The campaign covered roughly 290,000 compounds. About 1,500 (0.52%) were called active. The sample holds actives, similar compounds and a random draw of the others, so the mix is not that of the screen.
Please reply with the bare figure in % and do not write the unit itself.

[
  {
    "MOLECULE": "Cc1cc(C)c(C#N)c(Nc2cccc(Br)c2)n1",
    "UNIT_SYMBOL": "%",
    "inhibition": 0.3
  }
]

Looking up CN(CC(=O)Nc1c(Cl)cccc1Cl)C(=O)c1ccncc1 , I see its inhibition listed as 2.5

Looking up CCOc1ccccc1OCCCNCc1ccccc1 , I see its inhibition listed as 59.7

Looking up CCc1ccc(CNC(=O)C2CCN(c3nnc(C)c4c(C)n(-c5ccc(C)cc5)nc34)CC2)cc1 , I see its inhibition listed as -20.3

Looking up Cc1cc(C)cc(NC(=S)NCCCN2CCOCC2)c1 , I see its inhibition listed as -2.7

Looking up COc1cc(NC(=S)N2CCCC(C)C2)c(OC)cc1Cl (stereo not given) , I see its inhibition listed as 10.6

Looking up COc1ccc(N2CCC(N3CCN(C)C(CCO)C3)CC2)cc1 (stereo not given) , I see its inhibition listed as 6.5

Looking up O=C(c1nnc(-c2ccc(Cl)cc2)o1)C1CCCC1 , I see its inhibition listed as 51.3

Looking up Cc1ccccc1Nc1c([N+](=O)[O-])ccc2nonc12 , I see its inhibition listed as 17.2

Looking up Cc1ccc(NC(=O)c2nc[nH]c2C(=O)N[C@@H](CCCCNC(=O)OC(C)(C)C)C(=O)OC(C)(C)C)cc1 , I see its inhibition listed as -0.7

Looking up CCOC(=O)c1c(C)[nH]c(C2=NNC(=NC(C)COC)SC2)c1C (stereo not given) , I see its inhibition listed as 8.2

###

TEST_SYSTEM: Dual specificity protein phosphatase 3 (Homo sapiens)
TEST_NAME: VHR1 phosphatase inhibitors, primary screen, biochemical, absorbance, uHTS (AID 1654)
COND: recombinant VHR phosphatase, pNPP absorbance, at 13.3 µM, active compounds read high
Hit rate of the full screen: of about 290,000 compounds, about 1,500 (0.52%) were called active. The list comes from a sample in which actives are over-represented; it also holds close analogues and randomly drawn compounds.
TEST_READOUT: inhibition (%)
Please reply with the bare figure in % and do not write the unit itself.

Here are 5 compounds together with their reported answers.
[
  {
    "COMPOUND": "Cc1ccc2c(c1)C(c1ccccc1)N(C(=O)c1ccc(F)cc1)CC(=O)N2 (centres undefined)",
    "TEST_READOUT": "inhibition",
    "READOUT_NUMBER": 23.9
  },
  {
    "COMPOUND": "CCc1cc(-c2nnc(SCC(=O)NC3CC3)n2C)cs1",
    "TEST_READOUT": "inhibition",
    "READOUT_NUMBER": 24
  },
  {
    "COMPOUND": "Cc1cccc(C(=O)OCC(=O)Nc2ccc(F)cc2)c1",
    "TEST_READOUT": "inhibition",
    "READOUT_NUMBER": 8
  },
  {
    "COMPOUND": "COc1ccc(NC(=S)N2CCCC(CO)C2)c(OC)c1 (centres undefined)",
    "TEST_READOUT": "inhibition",
    "READOUT_NUMBER": -17.2
  },
  {
    "COMPOUND": "Cc1ccc(N2CCN(C3=NC(=O)/C(=C\\c4cccs4)S3)CC2)cc1",
    "TEST_READOUT": "inhibition",
    "READOUT_NUMBER": -10.9
  }
]

Form field, inhibition with Dual specificity protein phosphatase 3 (Homo sapiens), item Cc1ccc(S(=O)(=O)N2CCC(C(=O)N[C@@H](C)C(=O)NCc3ccccc3)CC2)cc1 : 1.5

Form field, inhibition with Dual specificity protein phosphatase 3 (Homo sapiens), item COc1ccccc1N1CCC(N2CCN(CC(C)(C)C)C(CCO)C2)CC1 (centres undefined) : 59.1

Form field, inhibition with Dual specificity protein phosphatase 3 (Homo sapiens), item CCc1ccc(N2CC(C(=O)N3CCCCCC3)CC2=O)cc1 (centres undefined) : 30.7

Form field, inhibition with Dual specificity protein phosphatase 3 (Homo sapiens), item CCCn1nnnc1NCc1ccc(CC)cc1 : 10.8
